experiment: Cmax in Sprague-Dawley rat at 15 mg/kg, po and measured upto 48 hrs by LC-MS/MS analysis; assay type: ADME, organism-based; parameters: dose 15 mg/kg, time < 48 hrs, route po; details: in vivo
endpoint_label: Cmax (ng/mL)
Just the number please, in ng/mL, no unit attached.

Query :: Tell me the measured Cmax of Nc1nc(-c2cn(Cc3c(F)cccc3Cl)c3ncccc23)ncc1C1CC1 , please.
Result :: 2680

----------
Quick reference: CLint scaled at 3 µM of the listed items.
assay: Metabolic stability in human liver microsomes assessed as intrinsic clearance at 3 uM incubated upto 90 mins in presence of NADPH by LC-MS/MS analysis; format: ADME, Microsome; conditions: read-out: CLH
State just the number; it will be interpreted in mL/min/kg.

Example results:
Nc1nc(-c2cn(Cc3c(F)cccc3Cl)c3ncccc23)ncc1C1CC1 :: 91.8
Fc1cccc(Cl)c1Cn1cc(-c2ncc(C3CC3)cn2)c2cccnc21 :: 190

Next:
Query :: Name the recorded CLint scaled at 3 µM for Nc1nc(-c2nn(Cc3ccccc3F)c3ncccc23)ncc1C1CC1 .
Result :: 45.7

----------
test: AUCt in Sprague-Dawley rat at 15 mg/kg, po and measured upto 48 hrs by LC-MS/MS analysis; type: ADME, organism-based; set-up: dose 15 mg/kg, time < 48 hrs, route po; settings: in vivo
endpoint_label: AUC(0-t) at 48 h (ng·h/mL)
Give the quantity in ng·h/mL, number only.

Query :: What value of AUC(0-t) at 48 h has been recorded for this entry: Nc1nc(-c2cn(Cc3c(F)cccc3Cl)c3ncccc23)ncc1C1CC1
Result :: 11600

----------
assay: Terminal half life in Han Wistar rat at 5 mg/kg,po and measured upto 24 hrs by LC-MS analysis; assay type: ADME, organism-based; settings: in vivo, read-out: beta t1/2 (converted)
endpoint_label: half-life (h)
Provide only the numeric value, understood in h.

Query :: Need half-life of COc1cccc(-c2ccc(NC(=O)C3=C(C(=O)O)CCC3)c(F)c2)c1 , thanks.
Result :: 9.1

----------
test: Half life in Sprague-Dawley rat at 5 mg/kg, iv and measured upto 48 hrs by LC-MS/MS analysis; assay type: ADME, organism-based; details: in vivo
endpoint_label: half-life (h)
Kindly answer with a numeric value in h, unit omitted.

Query :: Record request: half-life value, item Nc1nc(-c2cn(Cc3c(F)cccc3Cl)c3ncccc23)ncc1C1CC1
Result :: 2.6

----------
assay: Metabolic stability in human liver microsomes assessed as half life at 3 uM incubated upto 90 mins in presence of NADPH by LC-MS/MS analysis; type: ADME, Microsome
endpoint_label: half-life at 3 µM (min)
Could you give me the number in min? Just the number is fine.

Fc1cccc(Cl)c1Cn1cc(-c2ncc(C3CC3)cn2)c2cccnc21 :: 9.2
Nc1nc(-c2cn(Cc3c(F)cccc3Cl)c3ncccc23)ncc1C1CC1 :: 18.9

Could you now consider this next molecule?
Query :: // returns reported half-life at 3 µM for input Nc1nc(-c2nn(Cc3ccccc3F)c3ncccc23)ncc1C1CC1
Result :: 38.1

----------
Catalogue of Vd/F values
assay: Apparent volume of distribution during terminal phase in Sprague-Dawley rat at 15 mg/kg, po and measured upto 48 hrs by LC-MS/MS analysis; assay type: ADME, organism-based; conditions: in vivo, read-out: Vz/F
Number in L/kg, nothing else.

COc1cccc(-c2ccc(NC(=O)C3=C(C(=O)O)CCC3)c(F)c2)c1 :: 0.02

Switching to the query record.
Query :: Give the measured Vd/F of Nc1nc(-c2cn(Cc3c(F)cccc3Cl)c3ncccc23)ncc1C1CC1 .
Result :: 2.95
